assayed-system: T1, orthogonal hCD122 receptor (hoRb), hCD122 with H133D and Y134F (human, UniProt P14784 27-550)
T1 sequence: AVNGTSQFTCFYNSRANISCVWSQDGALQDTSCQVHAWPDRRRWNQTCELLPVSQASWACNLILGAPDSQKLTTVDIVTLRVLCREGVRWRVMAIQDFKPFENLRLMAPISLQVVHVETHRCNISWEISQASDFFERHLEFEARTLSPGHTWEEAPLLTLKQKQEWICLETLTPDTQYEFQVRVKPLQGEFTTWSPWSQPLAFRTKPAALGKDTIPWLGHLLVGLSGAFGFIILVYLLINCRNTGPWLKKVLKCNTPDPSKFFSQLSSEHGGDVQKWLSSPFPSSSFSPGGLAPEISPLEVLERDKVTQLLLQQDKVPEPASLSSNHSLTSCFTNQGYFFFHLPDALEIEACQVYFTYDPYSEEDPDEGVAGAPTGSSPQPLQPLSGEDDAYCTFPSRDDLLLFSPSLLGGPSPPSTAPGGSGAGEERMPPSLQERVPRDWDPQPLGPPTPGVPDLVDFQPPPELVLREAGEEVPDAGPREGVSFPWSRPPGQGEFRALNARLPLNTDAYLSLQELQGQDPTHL
assay-details: cell-based or functional assay
measured-property: 3F8 Ortho Proliferation Signal 1:10 (cts/min)
Only the number, expressed in cts/min, is required.

{"binder": "SQVLGA (ligand) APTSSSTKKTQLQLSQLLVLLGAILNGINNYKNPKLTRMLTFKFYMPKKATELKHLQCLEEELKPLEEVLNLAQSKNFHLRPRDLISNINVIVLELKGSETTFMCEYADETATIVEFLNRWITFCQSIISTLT", "measured-property": "3F8 Ortho Proliferation Signal 1:10", "experimental-result": 9170}

Alright, here's another binder for you.
Input line: I would be grateful if you could share the reported 3F8 Ortho Proliferation Signal 1:10 for Δ88N, SQVLKA (ligand) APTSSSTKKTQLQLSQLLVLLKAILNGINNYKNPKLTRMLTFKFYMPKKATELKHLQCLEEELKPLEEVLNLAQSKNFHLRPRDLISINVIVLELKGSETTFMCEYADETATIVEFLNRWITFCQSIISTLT .
Output line: 580
